Assignment: determine reported IC50 for the given compounds.
SYSTEM TESTED: DNA gyrase subunit A/DNA gyrase subunit B (Mycobacterium tuberculosis (strain ATCC 25618 / H37Rv), UniProt P9WG45+P9WG47)
Sequence (P9WG45 whole entry): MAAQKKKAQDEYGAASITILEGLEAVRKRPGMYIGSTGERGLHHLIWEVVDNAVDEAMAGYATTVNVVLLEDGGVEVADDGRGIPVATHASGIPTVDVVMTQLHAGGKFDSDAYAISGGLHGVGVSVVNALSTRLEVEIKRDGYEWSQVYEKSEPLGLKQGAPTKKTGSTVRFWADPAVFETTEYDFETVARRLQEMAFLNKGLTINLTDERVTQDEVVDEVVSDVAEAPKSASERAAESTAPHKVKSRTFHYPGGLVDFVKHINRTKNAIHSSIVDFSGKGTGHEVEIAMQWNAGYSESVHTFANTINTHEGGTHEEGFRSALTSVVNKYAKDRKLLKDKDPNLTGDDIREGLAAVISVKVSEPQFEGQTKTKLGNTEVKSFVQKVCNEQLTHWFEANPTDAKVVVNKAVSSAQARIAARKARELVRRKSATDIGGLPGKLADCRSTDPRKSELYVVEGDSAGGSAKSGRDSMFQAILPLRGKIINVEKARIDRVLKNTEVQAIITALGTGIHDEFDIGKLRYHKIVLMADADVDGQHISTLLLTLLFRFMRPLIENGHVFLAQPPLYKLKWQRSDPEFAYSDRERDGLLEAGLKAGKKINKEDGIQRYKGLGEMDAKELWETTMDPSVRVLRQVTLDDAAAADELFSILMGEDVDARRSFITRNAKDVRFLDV
Sequence (P9WG47 whole entry): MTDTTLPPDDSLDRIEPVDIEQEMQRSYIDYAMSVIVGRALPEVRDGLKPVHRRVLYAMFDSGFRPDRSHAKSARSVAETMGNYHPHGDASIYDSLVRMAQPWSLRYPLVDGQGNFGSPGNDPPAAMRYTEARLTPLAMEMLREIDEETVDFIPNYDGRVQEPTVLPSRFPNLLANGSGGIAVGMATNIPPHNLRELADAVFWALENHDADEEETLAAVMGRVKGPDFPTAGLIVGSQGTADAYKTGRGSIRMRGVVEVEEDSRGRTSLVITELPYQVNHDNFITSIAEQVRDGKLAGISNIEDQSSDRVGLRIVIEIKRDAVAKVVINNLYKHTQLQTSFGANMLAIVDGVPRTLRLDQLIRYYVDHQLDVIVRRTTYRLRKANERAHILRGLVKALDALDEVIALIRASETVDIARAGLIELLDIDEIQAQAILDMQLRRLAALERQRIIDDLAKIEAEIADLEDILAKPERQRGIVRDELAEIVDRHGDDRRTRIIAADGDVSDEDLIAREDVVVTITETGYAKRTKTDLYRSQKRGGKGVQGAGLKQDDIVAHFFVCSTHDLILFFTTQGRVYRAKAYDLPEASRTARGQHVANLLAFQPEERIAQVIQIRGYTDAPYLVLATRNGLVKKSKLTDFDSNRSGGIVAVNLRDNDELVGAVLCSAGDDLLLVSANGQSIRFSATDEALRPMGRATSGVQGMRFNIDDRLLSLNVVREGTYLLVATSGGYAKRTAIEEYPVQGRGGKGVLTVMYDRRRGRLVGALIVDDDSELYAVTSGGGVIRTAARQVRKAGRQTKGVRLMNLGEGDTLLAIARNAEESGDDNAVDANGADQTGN
TEST SUMMARY: Inhibition of Mycobacterium tuberculosis DNA gyrase ATPase activity
Assay type: protein-complex assay
Provide the reading as a plain figure in nM.

# IC50 lookup, item CNc1cc(F)cc2c1[nH]c1nc(CNC(=O)c3cnco3)nc(N3CCC(N)C3)c12 (configuration not stated)
59

# IC50 lookup, item CNc1cc(F)cc2c1[nH]c1nc(CNC(=O)c3cocn3)nc(N3CCC(N)C3)c12 (configuration not stated)
25
